B1: ZNF24 (parent)
chain: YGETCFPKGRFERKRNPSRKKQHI

variants of: B1; assay: protein stability index of a GFP-peptide fusion (GPS, HEK-293T) (PSI 1-6); higher = more stable; conditions: c terminus: a fixed tail appended;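 further: lentivirally expressed fusions sorted by FACS into six bins by GFP to DsRed ratio, PSI derived from sequencing read proportions per bin multiplied by bin number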
recorded metric: protein stability index
Enter a number only.

# example entries with known answers
YGETCFPKGRFERKRNPSRKSQHI [K21S]    3.05
YDETCFPKGRFERKRNPSRKKQHI [G2D]    4.33

// query protein stability index value for entry YGETCFPKGRFERKFNPSRKKQHI [R15F]
2.83

// query protein stability index value for entry YGETCFPKGRFGRKRNPSRKKQHI [E12G]
3.16

Quick check: protein stability index of YGETCFPCGRFERKRNPSRKKQHI [K8C] ?
1.68

// query protein stability index value for entry YGETCFKKGRFERKRNPSRKKQHI [P7K]
3.35

Please look up its protein stability index: YGETCFPKGRQERKRNPSRKKQHI [F11Q]
3.41

Entry YGETHFPKGRFERKRNPSRKKQHI [C5H] : reported protein stability index = ?
3.63

Find the recorded protein stability index belonging to YGETCFPKGTFERKRNPSRKKQHI [R10T] and report it.
3.23

Query: protein stability index; subject: YGKTCFPKGRFERKRNPSRKKQHI [E3K]
3.11

Fill in the blank: the reported protein stability index of YGETCFPKGRFFRKRNPSRKKQHI [E12F] is ____.
2

Need protein stability index, item YGETMFPKGRFERKRNPSRKKQHI [C5M]
2.25

Reference source: the supplement of paper PMC10567573
